Source: paper PMC4335020

- methodSummary: Single oral dose human plasma pharmacokinetics of D, DA and DOH after Cogni.Q
- Assay type: in vivo
- conditions: both sexes, human, plasma, oral, n=20 (S1 Table); read-out: AUC0-48h, Grand Mean
valueType: AUC(0-t)
Kindly report the value followed by its unit.

Request: Give the reported value of AUC(0-t) for this record: `CC(C)=CC(=O)O[C@H]1Cc2cc3ccc(=O)oc3cc2OC1(C)C`
Result: 0.0371 µM·h

Request: Could you please provide reported AUC(0-t) for `CC1(C)Oc2cc3oc(=O)ccc3cc2C[C@@H]1O` ? Thanks!
Result: 27.6 µM·h

Request: Item C/C=C(/C)C(=O)O[C@H]1Cc2cc3ccc(=O)oc3cc2OC1(C)C [DA, decursinol angelate] : provide AUC(0-t)
Result: 0.335 µM·h

###

- methodSummary: Single oral dose human plasma pharmacokinetics of D, DA and DOH after Cogni.Q
- Format: in vivo
- conditions: human, plasma, oral, 4 Cogni.Q vegicaps, subject S19 (130 lb); read-out: Cmax
- Experimental: Ten healthy male and 10 female subjects were recruited by public announcement in Amarillo, TX, from January 2013 to April 2013 (see Fig. 1 CONSORT diagram). […] Plasma was prepared by centrifuging the heparinized blood at 1000 g for 15 minutes at room temperature. Urine samples (40mL) were collected within time spans of 0–4, 4–8, 8–12 and 12–24 hours (total volume of urine was recorded). […]
Consider the following molecules; for each one, report its Cmax.
Express the result in nM but write the number alone.

Request: Write down Cmax measured for item `CC1(C)Oc2cc3oc(=O)ccc3cc2C[C@@H]1O`
Result: 2270

Request: Respond only with Cmax recorded for `CC(C)=CC(=O)O[C@H]1Cc2cc3ccc(=O)oc3cc2OC1(C)C`
Result: 1.7

Request: Check the records and state Cmax for C/C=C(/C)C(=O)O[C@H]1Cc2cc3ccc(=O)oc3cc2OC1(C)C [DA, decursinol angelate]
Result: 6.9

###

- methodSummary: Single oral dose human plasma pharmacokinetics of D, DA and DOH after Cogni.Q
- Type: in vivo
- conditions: human, plasma, oral, 4 Cogni.Q vegicaps, subject S18 (180 lb); read-out: Tmax
- Protocol: Ten healthy male and 10 female subjects were recruited by public announcement in Amarillo, TX, from January 2013 to April 2013 (see Fig. 1 CONSORT diagram). […] Plasma was prepared by centrifuging the heparinized blood at 1000 g for 15 minutes at room temperature. Urine samples (40mL) were collected within time spans of 0–4, 4–8, 8–12 and 12–24 hours (total volume of urine was recorded). […]
valueType: Tmax
Number plus unit, in that order.

Request: Quickly give me recorded Tmax for `CC1(C)Oc2cc3oc(=O)ccc3cc2C[C@@H]1O`
Result: 3 h

Request: Please give measured Tmax of the following entry: C/C=C(/C)C(=O)O[C@H]1Cc2cc3ccc(=O)oc3cc2OC1(C)C [DA, decursinol angelate]
Result: 4 h

Request: Look up and state reported Tmax for `CC(C)=CC(=O)O[C@H]1Cc2cc3ccc(=O)oc3cc2OC1(C)C`
Result: 4 h

###

Provide the reported AUC(0-t) of each item.
- methodSummary: Single oral dose human plasma pharmacokinetics of D, DA and DOH after Cogni.Q
- Type: in vivo
- conditions: human, plasma, oral, 4 Cogni.Q vegicaps, subject S12 (169 lb); read-out: AUC0-48h
Return type: number; implicit unit µM·h.

Request: Please list AUC(0-t) recorded for the compound CC1(C)Oc2cc3oc(=O)ccc3cc2C[C@@H]1O [DOH, decursinol]
Result: 29.1

Request: Look up AUC(0-t) of C/C=C(/C)C(=O)O[C@H]1Cc2cc3ccc(=O)oc3cc2OC1(C)C [DA, decursinol angelate] and report it.
Result: 0.15

Request: Supply measured AUC(0-t) of CC(C)=CC(=O)O[C@H]1Cc2cc3ccc(=O)oc3cc2OC1(C)C [D, decursin] in your reply.
Result: 0.0248
